- Tested on: CPC-N (Small Cell Lung Carcinoma)
- method notes: Bliss excess, mean over the matrix (fraction); higher = more synergy
// values below are reported Bliss excess
quantity kind: Bliss excess

- molecule: "CN(CCO)CC[C@H](CSc1ccccc1)Nc1ccc(S(=O)(=O)NC(=O)c2ccc(N3CCC([C@@H](O)c4ccccc4-c4ccc(Cl)cc4)CC3)cc2)cc1S(=O)(=O)C(F)(F)F [AZD4320] + CC(=O)O[C@H]1C(=O)[C@@]2(C)[C@H]([C@H](OC(=O)c3ccccc3)[C@]3(O)C[C@H](OC(=O)[C@H](O)[C@@H](NC(=O)c4ccccc4)c4ccccc4)C(C)=C1C3(C)C)[C@]1(OC(C)=O)CO[C@@H]1C[C@@H]2O [Paclitaxel] (first compound max 1 µM, 7x7, partner max 3 µM)"
  measured value: 0.0262
- molecule: "COc1cccc(OCCCN)c1-c1cc(Nc2cnc(C#N)cn2)n[nH]1 [Prexasertib] + O=C(c1cc(Cc2n[nH]c(=O)c3ccccc23)ccc1F)N1CCN(C(=O)C2CC2)CC1 [Olaparib] (first compound max 1 µM, 7x7, partner max 10 µM)"
  measured value: -0.0458
- molecule: "CC1(C)CCC(CN2CCN(c3ccc(C(=O)NS(=O)(=O)c4ccc(NCC5CCOCC5)c([N+](=O)[O-])c4)c(Oc4cnc5[nH]ccc5c4)c3)CC2)=C(c2ccc(Cl)cc2)C1 [Venetoclax] + Cn1cnc2c(F)c(Nc3ccc(Br)cc3Cl)c(C(=O)NOCCO)cc21 [Selumetinib] (first compound max 1 µM, 7x7, partner max 3 µM)"
  measured value: -0.0454

----------
- System: LS-1034 (Colorectal Carcinoma)
- method notes: Bliss excess, mean over the matrix (fraction); higher = more synergy
// values below are reported Bliss excess
quantity kind: Bliss excess

- molecule: "N#Cc1cnc(Nc2cc(NC[C@H]3CNCCO3)c(C(F)(F)F)cn2)cn1 [SRA737] + CCc1c2c(nc3ccc(O)cc13)-c1cc3c(c(=O)n1C2)COC(=O)[C@]3(O)CC [SN-38] (first compound max 10 µM, 7x7, partner max 0.3 µM)"
  measured value: 0.083
- molecule: "C=CCn1c(=O)c2cnc(Nc3ccc(N4CCN(C)CC4)cc3)nc2n1-c1cccc(C(C)(C)O)n1 [AZD1775] + O=C(c1cc(Cc2n[nH]c(=O)c3ccccc23)ccc1F)N1CCN(C(=O)C2CC2)CC1 [Olaparib] (first compound max 1 µM, partner max 10 µM)"
  measured value: 0.0299

----------
- Tested on: MS-1 (Small Cell Lung Carcinoma)
- method notes: combination Emax (second highest fraction inhibited in the dose matrix, 72 h); higher = more inhibition; extreme values may be limits of the assay
quantity kind: combination Emax

- molecule: "CN(C)CCCOc1ccc(-c2ccc3ncc4c(c3c2)n(C2CCOCC2)c(=O)n4C)cn1 [AZD0156] + O=C(c1cc(Cc2n[nH]c(=O)c3ccccc23)ccc1F)N1CCN(C(=O)C2CC2)CC1 [Olaparib] (first compound max 3 µM, partner max 3 µM)"
  system under test: "MS-1 (Small Cell Lung Carcinoma)"
  measured value: 0.438
- molecule: "CN(CCO)CC[C@H](CSc1ccccc1)Nc1ccc(S(=O)(=O)NC(=O)c2ccc(N3CCC([C@@H](O)c4ccccc4-c4ccc(Cl)cc4)CC3)cc2)cc1S(=O)(=O)C(F)(F)F [AZD4320] + CS(=O)(=O)CCNCc1ccc(-c2ccc3ncnc(Nc4ccc(OCc5cccc(F)c5)c(Cl)c4)c3c2)o1 [Lapatinib] (first compound max 1 µM, 7x7, partner max 10 µM)"
  system under test: "MS-1 (Small Cell Lung Carcinoma)"
  measured value: 0.971
- molecule: "Cc1cc2ncnn2cc1Nc1ncc2c(n1)n(C1CCOCC1)c(=O)n2C [AZD7648] + COc1cc([C@@H]2c3cc4c(cc3[C@@H](O[C@@H]3O[C@@H]5CO[C@@H](C)O[C@H]5[C@H](O)[C@H]3O)[C@H]3COC(=O)[C@H]23)OCO4)cc(OC)c1O [Etoposide] (first compound max 10 µM, 7x7, partner max 10 µM)"
  system under test: "MS-1 (Small Cell Lung Carcinoma)"
  measured value: 0.842
- molecule: "CC1(C)CCC(CN2CCN(c3ccc(C(=O)NS(=O)(=O)c4ccc(NCC5CCOCC5)c([N+](=O)[O-])c4)c(Oc4cnc5[nH]ccc5c4)c3)CC2)=C(c2ccc(Cl)cc2)C1 [Venetoclax] + Cn1cnc2c(F)c(Nc3ccc(Br)cc3Cl)c(C(=O)NOCCO)cc21 [Selumetinib] (first compound max 1 µM, 7x7, partner max 3 µM)"
  system under test: "MS-1 (Small Cell Lung Carcinoma)"
  measured value: 0.396
